Provide the recorded Ros(h) % activity for the entries that follow.
- measured-on: Ros(h) (Homo sapiens, UniProt P08922)
- Construct: purchased Millipore (IC50 Profiler Express service)
- Sequence (P08922 28-2347): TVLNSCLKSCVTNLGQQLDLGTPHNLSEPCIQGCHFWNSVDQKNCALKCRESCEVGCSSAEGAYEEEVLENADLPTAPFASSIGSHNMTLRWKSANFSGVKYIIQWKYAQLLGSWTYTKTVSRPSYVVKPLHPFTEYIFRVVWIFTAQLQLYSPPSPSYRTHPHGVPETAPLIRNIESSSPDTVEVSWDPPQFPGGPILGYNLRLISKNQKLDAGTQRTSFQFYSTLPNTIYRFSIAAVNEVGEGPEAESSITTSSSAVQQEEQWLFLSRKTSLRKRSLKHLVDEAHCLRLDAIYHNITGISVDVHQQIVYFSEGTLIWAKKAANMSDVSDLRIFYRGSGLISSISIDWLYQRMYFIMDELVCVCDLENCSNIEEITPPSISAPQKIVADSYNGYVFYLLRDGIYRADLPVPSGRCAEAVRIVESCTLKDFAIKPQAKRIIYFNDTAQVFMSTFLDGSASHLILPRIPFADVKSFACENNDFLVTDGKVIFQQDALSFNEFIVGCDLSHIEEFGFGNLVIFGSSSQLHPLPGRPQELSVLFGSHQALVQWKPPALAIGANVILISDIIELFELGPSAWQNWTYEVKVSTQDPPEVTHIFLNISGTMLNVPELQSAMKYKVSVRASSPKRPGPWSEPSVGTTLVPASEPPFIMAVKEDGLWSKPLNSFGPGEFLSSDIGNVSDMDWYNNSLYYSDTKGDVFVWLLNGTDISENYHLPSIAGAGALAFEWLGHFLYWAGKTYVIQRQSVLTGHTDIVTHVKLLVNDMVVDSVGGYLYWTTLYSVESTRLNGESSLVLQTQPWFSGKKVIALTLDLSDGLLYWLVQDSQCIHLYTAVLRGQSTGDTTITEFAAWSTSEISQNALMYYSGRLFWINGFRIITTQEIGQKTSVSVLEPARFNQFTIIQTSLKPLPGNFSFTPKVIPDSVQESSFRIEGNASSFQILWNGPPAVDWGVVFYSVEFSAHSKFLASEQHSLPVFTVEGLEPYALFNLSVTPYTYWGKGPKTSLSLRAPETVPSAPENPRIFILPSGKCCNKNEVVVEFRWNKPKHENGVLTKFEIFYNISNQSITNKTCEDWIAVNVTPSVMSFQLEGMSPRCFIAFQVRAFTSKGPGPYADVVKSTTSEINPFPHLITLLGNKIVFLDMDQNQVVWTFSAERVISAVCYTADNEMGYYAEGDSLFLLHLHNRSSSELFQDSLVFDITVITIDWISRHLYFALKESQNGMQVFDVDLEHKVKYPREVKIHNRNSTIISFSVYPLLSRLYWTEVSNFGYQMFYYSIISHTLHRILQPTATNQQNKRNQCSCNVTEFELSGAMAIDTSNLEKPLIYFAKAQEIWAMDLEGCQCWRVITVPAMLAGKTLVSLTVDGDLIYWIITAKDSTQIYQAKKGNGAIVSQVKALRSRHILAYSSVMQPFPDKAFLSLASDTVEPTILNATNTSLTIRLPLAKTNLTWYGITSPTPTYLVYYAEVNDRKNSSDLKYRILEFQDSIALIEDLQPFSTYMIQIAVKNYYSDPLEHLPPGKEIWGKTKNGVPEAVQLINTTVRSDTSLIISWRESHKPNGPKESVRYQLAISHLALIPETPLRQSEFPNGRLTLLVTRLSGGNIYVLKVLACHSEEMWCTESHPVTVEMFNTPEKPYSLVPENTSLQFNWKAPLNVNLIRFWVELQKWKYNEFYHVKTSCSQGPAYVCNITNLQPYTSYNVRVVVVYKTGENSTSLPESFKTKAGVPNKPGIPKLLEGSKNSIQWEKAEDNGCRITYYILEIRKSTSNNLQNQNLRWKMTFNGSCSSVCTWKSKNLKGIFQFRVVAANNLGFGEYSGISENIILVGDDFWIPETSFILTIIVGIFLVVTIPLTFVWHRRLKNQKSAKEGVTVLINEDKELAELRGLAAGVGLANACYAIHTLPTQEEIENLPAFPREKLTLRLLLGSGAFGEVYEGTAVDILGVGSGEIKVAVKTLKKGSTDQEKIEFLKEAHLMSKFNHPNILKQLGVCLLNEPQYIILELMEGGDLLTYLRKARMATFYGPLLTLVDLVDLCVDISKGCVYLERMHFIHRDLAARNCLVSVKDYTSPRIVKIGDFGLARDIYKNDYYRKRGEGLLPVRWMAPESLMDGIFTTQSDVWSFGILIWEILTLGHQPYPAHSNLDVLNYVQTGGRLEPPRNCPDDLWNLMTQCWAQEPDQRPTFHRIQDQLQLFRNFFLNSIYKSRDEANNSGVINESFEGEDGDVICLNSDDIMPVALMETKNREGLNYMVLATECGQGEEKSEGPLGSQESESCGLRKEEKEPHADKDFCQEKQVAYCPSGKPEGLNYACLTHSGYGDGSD
- test-name: Kinase Profiling Assay
- Assay type: biochemical
- setup-conditions: 100 μM peptide
Give your result in % as a bare value.

# value of Ros(h) % activity, Ros(h) (Homo sapiens, UniProt P08922), item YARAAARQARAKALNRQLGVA (Mammalian) [MMI-0200] = 86

Value sought: Ros(h) % activity, system Ros(h) (Homo sapiens, UniProt P08922), item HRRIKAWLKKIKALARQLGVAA (Mammalian) [MMI-0500] . Result: 150

// sequence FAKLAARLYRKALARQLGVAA [MMI-0300] , assay Ros(h) (Homo sapiens, UniProt P08922), Ros(h) % activity value: 95

The value of Ros(h) % activity recorded for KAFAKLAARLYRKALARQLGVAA [MMI-0400] when tested on Ros(h) (Homo sapiens, UniProt P08922) reads 99

# credit: patent US10562947B2
